- Test system: purified collagenase
- Assay summary: Rate of hydrolysis of DNP-peptide derivatives by purified collagenase (Example 15)
- Type: biochemical, tadpole
- Assay context: 5×10^-4 M peptide, purified collagenase 6.2 U/ml, 37° C., pH 7.5; average of three experiments; extraction with ethyl acetate (* compounds: ethyl acetate-n-butanol 1:0.15)
Non-standard residues stand in square brackets, D forms with d. Residues, ends and D or L forms follow the SMILES beside them. *: point of attachment. Dnp = O=[N+]([O-])c1ccc(*)c([N+](=O)[O-])c1
The label Condition met is reserved for Rate of hydrolysis by Collagenase strictly under 0.1 OD365/hr; Condition not met covers values equal to or above it.

Recorded results for 4 molecules are shown here.
{"Molecule": "CC[C@H](C)[C@H](NC(=O)CNC(=O)[C@H](C)NC(=O)[C@@H]1CCCN1c1ccc([N+](=O)[O-])cc1[N+](=O)[O-])C(=O)N[C@@H](C)C(=O)NCC(=O)N[C@@H](CCC(N)=O)C(=O)N[C@H](CCCNC(=N)N)C(=O)O [Example 5, DNP-Pro-Ala-Gly-Ile-Ala-Gly-Gln-D-Arg-OH] (Dnp-PAGIAGQ[dR]-OH)", "Classification": "Condition met"}
{"Molecule": "CC[C@H](C)[C@H](NC(=O)CNC(=O)[C@H](CC(C)C)NC(=O)[C@@H]1CCCN1c1ccc([N+](=O)[O-])cc1[N+](=O)[O-])C(=O)N[C@@H](C)C(=O)NCC(=O)N[C@@H](CCC(N)=O)C(=O)N[C@H](CCCNC(=N)N)C(=O)O [Example 9, DNP-Pro-Leu-Gly-Ile-Ala-Gly-Gln-D-Arg-OH] (Dnp-PLGIAGQ[dR]-OH)", "Classification": "Condition not met"}
{"Molecule": "CC(C)C[C@H](NC(=O)CNC(=O)[C@H](CCC(N)=O)NC(=O)[C@@H]1CCCN1c1ccc([N+](=O)[O-])cc1[N+](=O)[O-])C(=O)N[C@@H](C)C(=O)NCC(=O)N[C@@H](CCC(N)=O)C(=O)N[C@H](CCCNC(=N)N)C(=O)O [Example 4, DNP-Pro-Gln-Gly-Leu-Ala-Gly-Gln-D-Arg-OH] (Dnp-PQGLAGQ[dR]-OH)", "Classification": "Condition not met"}
{"Molecule": "CC(C)C[C@H](NC(=O)CNC(=O)[C@H](C)NC(=O)[C@@H]1CCCN1c1ccc([N+](=O)[O-])cc1[N+](=O)[O-])C(=O)N[C@@H](C)C(=O)NCC(=O)N[C@@H](CCC(N)=O)C(=O)N[C@H](CCCNC(=N)N)C(=O)O [Example 6, DNP-Pro-Ala-Gly-Leu-Ala-Gly-Gln-D-Arg-OH] (Dnp-PAGLAGQ[dR]-OH)", "Classification": "Condition not met"}

Is Rate of hydrolysis by Collagenase of CC[C@H](C)[C@H](NC(=O)CNC(=O)[C@H](C)Nc1ccc([N+](=O)[O-])cc1[N+](=O)[O-])C(=O)N[C@@H](C)C(=O)NCC(=O)N[C@@H](CCC(N)=O)C(=O)N[C@H](CCCNC(=N)N)C(=O)O strictly below 0.1 OD365/hr?
Condition met
